tested on: SK-MEL-5 melanoma; test: NCI tumour cell line growth inhibition, 48 h
Examples of compounds with documented TGI follow.
PROPERTY_MEASURED: TGI

CCOC(=O)c1ccc(C(=O)C(C(C)=O)C(=O)OC(C)(C)C)n1C (stereo not drawn)
> 100 µM
COc1ccc(OC)c(-c2nc3sccn3c2/C=C2/C(=O)Nc3ccc(Cl)cc32)c1
33.1 µM
NC(Cc1cc(I)c(O)c(I)c1)C(=O)O (stereo not drawn)
> 500 µM

----------
Examples of compounds with documented TGI follow.
tested on: HT29 colon; assay: NCI tumour cell line growth inhibition, 48 h
PROPERTY_MEASURED: TGI

O=C(O)/C=C(/CC(=O)O)C(=O)O
59.2 µM
CC1(C)O[C@@H](CO)[C@H]([C@@]23OC[C@H]4OC(C)(C)OC4[C@@H]2OC(C)(C)O3)O1 (some centres undefined)
> 100 µM
CN(C)CCOC(=O)COc1ccc(Cl)cc1
> 100 µM
CC(=O)OCC1OC(OC2C(COC(C)=O)OC(OCCC[S-])C(OC(C)=O)C2OC(C)=O)C(OC(C)=O)C(OC(C)=O)C1OC(C)=O.[Au+].c1ccc(CN2[CH-]N(Cc3ccccc3)C(c3ccccc3)=C2c2ccccc2)cc1 (centres undefined)
13.6 µM
Cn1c(=O)c2c(-c3ccccc3)onc2n(C)c1=O
> 100 µM
CC1(C)N=C(N)N=C(N)N1c1cccc(C#N)c1
> 100 µM
CC(=O)N(CN1C(=O)CCC1C(=O)O)c1ccccc1 (centres undefined)
> 100 µM
CCOC(=O)c1ccc(C(=O)C(C(C)=O)C(=O)OC(C)(C)C)n1C (centres undefined)
> 100 µM
COc1cccc(NC(=O)CSc2nnc(-c3ccc(N=Cc4ccc(Cl)cc4)cc3)o2)c1
29.8 µM
